Tested on: RAW-Dual (murine macrophage reporter line)
assay_details: NF-kB reporter (SEAP) activity fold change vs agonist alone; higher = enhanced NF-kB activity
condition_label: modulator concentration 10 µM; agonist: CpG ODN 1826 0.5 ug/mL
Each record here notes measured NF-kB reporter.
Quick one: just the number, no unit, thanks!

Here's what some known entries look like.
COC(=O)CCc1ccc(OCC(O)CNC(C)C)cc1 (configuration not stated) [Prestw-1137]: 1.06
Cl.O=C(O)/C=C/c1ccc(Cn2ccnc2)cc1: 1.43
COC(CNC(=O)C(C)(C)Oc1ccc(Cl)cc1)c1cccc(F)c1 (configuration not stated): 1.27

So for "CCCCOc1ccc(OCCCN2CCOCC2)cc1.Cl" , the logged NF-kB reporter turned out to be 1.2

So for CN1C(CC(=O)c2ccccc2)CCCC1CC(O)c1ccccc1.Cl (configuration not stated) , the logged NF-kB reporter turned out to be 0.601

So for "Cc1ccnc2c1NC(=O)c1cccnc1N2C1CC1" , the logged NF-kB reporter turned out to be 1.19

So for "NC(=O)c1ncn([C@@H]2O[C@H](CO)[C@@H](O)[C@H]2O)c1N" , the logged NF-kB reporter turned out to be 1.11

So for CN1C2CCCC1CC(NC(=O)c1nn(C)c3ccccc13)C2.Cl (configuration not stated) , the logged NF-kB reporter turned out to be 0.712

So for "CCN(CC)Cc1cc(Nc2ccnc3cc(Cl)ccc23)ccc1O.Cl.Cl" , the logged NF-kB reporter turned out to be 0.199

So for O=C1CCCC2=C1C(c1ccc(C(F)(F)F)cc1)Nc1ccc(C(=O)c3ccccc3)cc1N2 (configuration not stated) , the logged NF-kB reporter turned out to be 0.885

So for COc1ccccc1OCC(O)COC(N)=O (configuration not stated) , the logged NF-kB reporter turned out to be 1.56
